Test: Metabolic stability in cynomolgus monkey liver S9 fraction assessed as compound remaining at 10 uM after 60 mins by HPLC analysis in absence of NADP
Type: ADME, subcellular, Macaca fascicularis
Conditions: read-out: Stability
Reported remaining at 1 h, 10 µM is given for each of the following molecules.
REPORTED_ENDPOINT: remaining at 1 h, 10 µM

{"MOLECULE": "CC(C)OC(=O)[C@H](C)NP(=O)(OC[C@H]1O[C@@H](n2cnc3c(=O)[nH]c(N)nc32)[C@](C)(O)[C@@H]1O)Oc1cccc2ccccc12 (stereo partly drawn)", "REPORTED_ENDPOINT": "remaining at 1 h, 10 µM", "OBSERVED_MEASUREMENT": "86%"}
{"MOLECULE": "CC[C@H](C)[C@H](NP(=O)(OC[C@H]1O[C@@H](n2cnc3c(=O)[nH]c(N)nc32)[C@](C)(O)[C@@H]1O)Oc1cccc2ccccc12)C(=O)OCc1ccccc1 (stereo partly drawn)", "REPORTED_ENDPOINT": "remaining at 1 h, 10 µM", "OBSERVED_MEASUREMENT": "89%"}
{"MOLECULE": "C[C@H](NP(=O)(OC[C@H]1O[C@@H](n2cnc3c(=O)[nH]c(N)nc32)[C@](C)(O)[C@@H]1O)Oc1cccc2ccccc12)C(=O)OCC(C)(C)C (stereo partly drawn)", "REPORTED_ENDPOINT": "remaining at 1 h, 10 µM", "OBSERVED_MEASUREMENT": "88%"}

====

Assay: Metabolic stability in cynomolgus monkey liver S9 fraction assessed as compound remaining at 10 uM after 30 mins by HPLC analysis in presence of NADP
Assay type: ADME, subcellular, Macaca fascicularis
Conditions: read-out: Stability

{"MOLECULE": "CC(C)[C@H](NP(=O)(OC[C@H]1O[C@@H](n2cnc3c(=O)[nH]c(N)nc32)[C@](C)(O)[C@@H]1O)Oc1cccc2ccccc12)C(=O)OCc1ccccc1 (some centres not stated)", "U": "%", "remaining at 0.5 h, 10 µM": 0}
{"MOLECULE": "C[C@H](NP(=O)(OC[C@H]1O[C@@H](n2cnc3c(=O)[nH]c(N)nc32)[C@](C)(O)[C@@H]1O)Oc1cccc2ccccc12)C(=O)OCc1ccccc1 (some centres not stated)", "U": "%", "remaining at 0.5 h, 10 µM": 0}

====

Test: Cytotoxicity against human HepG2 cells after 72 hrs by celltiter-glo assay
Format: cell-based

{"COMPOUND": "C[C@H](NP(=O)(OC[C@H]1O[C@@H](n2cnc3c(=O)[nH]c(N)nc32)[C@](C)(O)[C@@H]1O)Oc1cccc2ccccc12)C(=O)O[C@@H](C)c1ccccc1 (stereo partly specified)", "CC50 at 72 h": "> 100 µM"}

====

Test: Metabolic stability in human intestine S9 fraction assessed as compound remaining at 10 uM after 60 mins by HPLC analysis in presence of NADP
Type: ADME, tissue-based
Settings: read-out: Stability
Reported remaining at 1 h, 10 µM is given for each of the following compounds.
REPORTED_ENDPOINT: remaining at 1 h, 10 µM (%)

{"COMPOUND": "C[C@H](NP(=O)(OC[C@H]1O[C@@H](n2cnc3c(=O)[nH]c(N)nc32)[C@](C)(O)[C@@H]1O)Oc1cccc2ccccc12)C(=O)OCC(C)(C)C (some centres undefined)", "REPORTED_ENDPOINT": "remaining at 1 h, 10 µM", "OBSERVED_MEASUREMENT": 28}
{"COMPOUND": "CC(C)OC(=O)[C@H](C)NP(=O)(OC[C@H]1O[C@@H](n2cnc3c(=O)[nH]c(N)nc32)[C@](C)(O)[C@@H]1O)Oc1cccc2ccccc12 (some centres undefined)", "REPORTED_ENDPOINT": "remaining at 1 h, 10 µM", "OBSERVED_MEASUREMENT": 65}
{"COMPOUND": "C[C@H](NP(=O)(OC[C@H]1O[C@@H](n2cnc3c(=O)[nH]c(N)nc32)[C@](C)(O)[C@@H]1O)Oc1ccc2ccccc2c1)C(=O)OCc1ccccc1 (some centres undefined)", "REPORTED_ENDPOINT": "remaining at 1 h, 10 µM", "OBSERVED_MEASUREMENT": 24}
{"COMPOUND": "COC(=O)[C@H](C)NP(=O)(OC[C@H]1O[C@@H](n2cnc3c(=O)[nH]c(N)nc32)[C@](C)(O)[C@@H]1O)Oc1cccc2ccccc12 (some centres undefined)", "REPORTED_ENDPOINT": "remaining at 1 h, 10 µM", "OBSERVED_MEASUREMENT": 60}
